Quick reference for TGI among some compounds
test system: A498 renal; assay: NCI tumour cell line growth inhibition, 48 h

CC(O)(c1ccc(OCCC[N+](C)(C)C)cc1)C(C)(O)c1ccc(OCCC[N+](C)(C)C)cc1 (stereo not drawn) :: > 100 µM
Nc1n[nH]c(N)n1 :: > 10000 µM

We now examine a further compound.
IN: Looking for the measured TGI of CC(Oc1ccc2c(=O)cc(-c3ccccc3)oc2c1)C(=O)O (stereo not drawn) , can you help?
OUT: > 100 µM

###

system: LOX IMVI melanoma; assay: NCI tumour cell line growth inhibition, 48 h
Measured attribute: TGI

IN: Please give the measured TGI for this compound: O=c1oc2c(O)c(O)cc3c(=O)oc4c(O)c(O)cc1c4c23
OUT: > 100 µM

IN: Need TGI, item O=C(O)c1ccc(Nc2nc3ccc(C(F)(F)F)cc3nc2-c2ccccc2)cc1
OUT: > 100 µM

IN: Would you mind telling me what TGI value was observed for N#CCCN(c1ccc(C=Nc2ccc(C(=O)O)cc2)cc1)S(=O)(=O)c1ccccc1 ?
OUT: > 100 µM

IN: Quick check: TGI of O=[N+]([O-])c1ccc(C2NC(=S)NC3c4cc([N+](=O)[O-])ccc4CCCC23)cc1 (configuration not stated) ?
OUT: > 100 µM

IN: // query TGI value for entry O=C(O)C1C2C=CC(O2)C1C(=O)NCc1ccncc1 (configuration not stated)
OUT: > 100 µM

IN: Entry CC1(C)C2=CCCC(=O)[C@@]2(C)CC[C@@H]1O has what TGI?
OUT: > 100 µM

IN: What does the record list as TGI for CC(=O)OC1CC2C(=O)CC1(C)C2(C)C (configuration not stated) ?
OUT: > 100 µM

IN: Using the record for O=C(CC1(O)C(=O)Nc2c(Cl)cc(Cl)cc21)c1ccc([N+](=O)[O-])cc1 (configuration not stated) , report its TGI.
OUT: > 100 µM

IN: Requested read-out: TGI. Entry: CCOC(=O)C12CCC(c3c(C)cccc3C)(O1)C(C(=O)OC)=C2C(=O)OC (configuration not stated)
OUT: > 7.87 µM

IN: TGI lookup needed for COc1cc(Cn2c3ccccc3c3cc(C)cc(OC)c32)cc2c1[nH]c1ccccc12 , thanks.
OUT: > 25 µM

IN: Given COc1cccc2c1C(=O)c1c(O)c3c(c(O)c1C2=O)CC(O)(C(C)=O)CC3OC1OC(COC(C)=O)C(OC(C)=O)C(OC(C)=O)C1OC(C)=O (configuration not stated) , state its recorded TGI.
OUT: > 100 µM

IN: # lookup: TGI of c1ccc(N2CCN(CCCN3CCc4c([nH]c5ccccc45)C3c3cccnc3)CC2)cc1 (configuration not stated)
OUT: > 100 µM
